Target: Recombinant human 17β-HSD13 (Homo sapiens)
Sequence (Q7Z5P4 20-300): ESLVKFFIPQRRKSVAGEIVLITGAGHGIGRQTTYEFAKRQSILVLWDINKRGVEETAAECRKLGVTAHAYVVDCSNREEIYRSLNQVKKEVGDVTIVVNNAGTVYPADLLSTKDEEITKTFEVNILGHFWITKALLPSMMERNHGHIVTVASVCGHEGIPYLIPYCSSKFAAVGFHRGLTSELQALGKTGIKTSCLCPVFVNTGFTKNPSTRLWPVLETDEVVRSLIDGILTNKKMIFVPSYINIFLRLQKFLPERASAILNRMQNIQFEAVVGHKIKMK
Assay: 17β-HSD13 rapid-fire mass spectrometry assay (RF/MS assay)
Settings: inhibition of 17β-HSD13, RF/MS assay; HSD17B13 80 nM, LTB4 10 μM, NAD+ 0.5 mM, RT 3 h
pIC50: −log10 of the molar value.
measured attribute: pIC50

Answered examples (7):
>  <smiles>
COc1ccc(-c2nc3sc4c(C=O)cccc4c3c(=O)n2Cc2cnco2)c(C2CC2)c1

>  <result>
< 5.00

$$$$
>  <smiles>
COc1cc(-c2nc3sc4c(O)c(Cl)ccc4c3c(=O)n2Cc2cnco2)c(C2CC2)cc1Cl

>  <result>
> 7.00

$$$$
>  <smiles>
O=c1c2c(nc(-c3cc(F)c(F)cc3C3CC3)n1Cc1cc(C(F)(F)F)no1)sc1c(O)c(Cl)ccc12

>  <result>
> 7.00

$$$$
>  <smiles>
O=c1c2c(nc(-c3ccc(F)c(F)c3C3CC3)n1Cc1cnco1)sc1c(O)c(Cl)ccc12

>  <result>
> 7.00

$$$$
>  <smiles>
CS(=O)(=O)c1ccc(-c2nc3sc4c(O)c(F)ccc4c3c(=O)n2Cc2cnc(C(F)(F)F)nc2)c(C2CC2)c1

>  <result>
> 7.00

$$$$
>  <smiles>
COC(=O)c1cccc2c1sc1nc(-c3ccc(OC)cc3C3CC3)n(Cc3cnco3)c(=O)c12

>  <result>
< 5.00

$$$$
>  <smiles>
COc1ccc(-c2nc3sc4c(O)c(Cl)ccc4c3c(=O)n2Cc2cnn(C)c2)c(C2CC2)c1

>  <result>
> 7.00

$$$$

For the molecule `COc1ccc(-c2nc3sc4c(B(O)O)cccc4c3c(=O)n2Cc2cnco2)c(C2CC2)c1` , what pIC50 is on record? 6.00 to 7.00
